Type: physicochemical
Set-up: key: 1 = fibrils present; 0 non-fibrillar structures
condition.summary: TEM; 1 = fibrils present, 0 = non-fibrillar structures
Catalogue of substances with associated Fibril
quantity.kind: Fibril

1. QCKIKIQINMWQ = 1
2. KNERIKNERI = 0
3. CRFRFQF = 1
4. CRFRVPF = 0
5. CSISIQI = 1
6. CKFKQFFNM = 1
7. CQFQFQF = 1
8. HIHIQIC = 1
9. RGDCKFKFQF = 1
10. KFKFEFEF = 1
11. KIKIQINMAQ = 1
12. KNDKND = 0
13. RGDKIKIQINMC = 1
14. MDQMDQMDQMDQMDQ = 0
15. CKFKFQFNMWQ = 1
16. QCKAKAQANMWQ = 0
17. KFKFQFNMWQ = 1
18. NMWQKAKAQA = 1
19. KAKQAANMWQ = 0
20. NMWQKVGTPL = 0
21. HHHHKIKIQINMYYYY = 1

---

Assay type: physicochemical
condition.summary: ThT-active if fluorescence at least twice the control
Catalogue of substances with associated ThT Cat. / ThT-Fluorescence (categorical)
quantity.kind: ThT Cat. / ThT-Fluorescence (categorical)

1) RVRVTVT = 0 (ThT-inactive (N-Fold <2))
2) NSGAITIG-NH2 [reference compound] = 0 (ThT-inactive (N-Fold <2))
3) CQFQFQF = 1 (ThT. Cat is 1, if Rel. ThT >2)
4) CKFKFQFNMW = 1 (ThT. Cat is 1, if Rel. ThT >2)
5) KIKIKIKIWW = 1 (ThT. Cat is 1, if Rel. ThT >2)
6) RLRLTLC = 0 (ThT-inactive (N-Fold <2))
7) KVKVKVQV = 1 (ThT. Cat is 1, if Rel. ThT >2)
8) CRLSLSLS = 0 (ThT-inactive (N-Fold <2))
9) KIKQII = 0 (ThT-inactive (N-Fold <2))
10) KKFQKKFQ = 0 (ThT-inactive (N-Fold <2))
11) TKTLTKTL = 0 (ThT-inactive (N-Fold <2))
12) CRFRVPF = 0 (ThT-inactive (N-Fold <2))
13) KIKIQIC = 1 (ThT. Cat is 1, if Rel. ThT >2)
14) RGDKIKIQIC = 1 (ThT. Cat is 1, if Rel. ThT >2)
15) KIKIQII = 0 (ThT-inactive (N-Fold <2))
16) QCKIKIQI = 1 (ThT. Cat is 1, if Rel. ThT >2)
17) HHHHKIKIQINMYYYY = 1 (ThT. Cat is 1, if Rel. ThT >2)
18) QCKFKQFFNM = 1 (ThT. Cat is 1, if Rel. ThT >2)
19) GYVIIK [reference compound] = 0 (ThT-inactive (N-Fold <2))
20) KIKIKIKIWWWW = 1 (ThT. Cat is 1, if Rel. ThT >2)
21) VHDCVNITIK [reference compound] = 1 (ThT. Cat is 1, if Rel. ThT >2)
22) CHLHLQL = 1 (ThT. Cat is 1, if Rel. ThT >2)
23) MDQMDQMDQMDQMDQ = 0 (ThT-inactive (N-Fold <2))
24) KIKQIINMWQ = 1 (ThT. Cat is 1, if Rel. ThT >2)
25) KFKFKFQF = 1 (ThT. Cat is 1, if Rel. ThT >2)
26) KFKFQFNMW = 0 (ThT-inactive (N-Fold <2))
27) EIEIQINMWQ = 1 (ThT. Cat is 1, if Rel. ThT >2)
28) GNNQQNY [reference compound] = 0 (ThT-inactive (N-Fold <2))
29) KIKIQIMQWN = 0 (ThT-inactive (N-Fold <2))
30) KAKAQA = 0 (ThT-inactive (N-Fold <2))
31) CKFKQFFNM = 1 (ThT. Cat is 1, if Rel. ThT >2)
32) RQGNINIVA [reference compound] = 1 (ThT. Cat is 1, if Rel. ThT >2)
33) KIKIWIW = 0 (ThT-inactive (N-Fold <2))
34) NKGAII [reference compound] = 0 (ThT-inactive (N-Fold <2))
35) CETMYDKILKNLSRSR = 0 (ThT-inactive (N-Fold <2))
36) KIKQIIN = 0 (ThT-inactive (N-Fold <2))
37) CEFEFQFNMWQ = 1 (ThT. Cat is 1, if Rel. ThT >2)
38) CKIKIQI = 1 (ThT. Cat is 1, if Rel. ThT >2)
39) IKFLSVN [reference compound] = 0 (ThT-inactive (N-Fold <2))
40) KIKIQINAWQ = 1 (ThT. Cat is 1, if Rel. ThT >2)
41) KIKIQIN = 0 (ThT-inactive (N-Fold <2))

---

System: HIV-1 infection of TZM-bl cells
assay.notes: HIV-1 infectivity enhancement assay, β-galactosidase luminescence
Assay type: cell-based
condition.summary: Feb2021; log10 of infectivity relative to EF-C
t if Log10 of Rel to EFC (Feb2021) is below -1. f if not; exact matches included in f.

1. CEIEIQINM [TM144] = t
2. KFKFQFFF [TG12] = f
3. KAKQAANMWQ [JG6] = t
4. CKYKYQY [KB2] = t
5. KVKVQVVV [TG8] = t
6. KWKWQW [KB3] = t
7. KFKFQFF [TG6] = f
8. CQFQFQF [QBL4] = f
9. KIKIQIC [TM112 / CN11] = f
10. CRFRVPF [CN8] = t
11. KVKVQVV [TG2] = t
12. CKIKIQI [MG3b] = f

---

Catalogue of substances with associated CR
assay.notes: Conversion rate (CR) assay with fluorescamine
Format: physicochemical
Parameters: key: % = 100−100×filtrate/original fluorescence intensity
condition.summary: conversion rate, fluorescamine assay
quantity.kind: CR

1) CKFKFQFNMWQ = 97.52
2) QCKFKFQFNM = 98.94
3) KIKQIINMWQ = 90.09
4) RGDKIKIQINMC = 60
5) KIKIQIII = 87
6) CKFKFQF = 95.56
7) QCKAKAQANM = 55.94
8) EIKIQINM = 50.72
9) SISISRRI = 24.22
10) HGDKCHGDKC = 37.3627
11) HRRHFRHKITKKK = 44.91
12) RGDKIKIQIC = 80
13) QCKFKQFFNM = 98.67
14) KIKIKIQI = 80
15) KAKAQA = 0.3138
16) KIKIQINMWQ = 94.34
17) CKIKIQINM = 75.5
18) HHHHKIKIKIKIWWWW = 96
19) CKFKFQFNM = 93.52
20) CKAKAQANMWQ = 92.45
21) KIKIQIC = 51.55
22) RGECKFKFQF = 98.71
23) KFKFKFQF = 94
24) RGDSKIKIQIC = 43.38
25) CRFRVPF = 97.05
26) CETMYDKILKNLSRSR = 98.89
27) KIKQII = 12.97
28) KFKFQFNMWQ = 96.16
29) HIHIQIC = 82.72
30) MKFKFQF = 86.86
31) MDQMDQMDQMDQMDQ = 53.03
32) CKIKQIINM = 45
33) CKIKIQI = 54
34) HGEHGEHGE = 42.88
35) QCKAKAQANMWQ = 89.28
36) RGDSGGGGGGKIKIQIC = 54.68
37) EIEIQINMWQ = 89.92
38) KFKFQFFF = 98.46
39) CSISIQINM = 86
40) QCKIKIQINMWQ = 93.68
41) CKFKQFFNMWQ = 98.72
42) CEIEIQINMWQ = 66.95
43) HLHLPLL = 37.51
44) CRFRFQF = 98.13

---

Catalogue of substances with associated TEM 2cat
Type: physicochemical
Set-up: key: 1 = fibrils present; 0 non-fibrillar structures
condition.summary: FigS12 panel A; fibril category by TEM
quantity.kind: TEM 2cat

1) KNDKND = 0
2) KIEIQINM = 1
3) FKFDKFKFDK = 0
4) KIKIKIKI = 0
5) KVKVKVQV = 0
6) QCKAKAQA = 0
7) CRFRVPF = 0
8) KFKQFFNMWQ = 0
9) MKFKFQF = 1
10) NMWQKVGTPL = 0
11) CKAKAQA = 0
12) HGDKCHGDKC = 0
13) KIRGKFEKED = 0
14) KAKAQA = 0
15) RGDKIKIQI = 1
16) KVKGVGK = 0
17) KAKAQANMWQ = 0
18) KFKFQFN = 1
19) CKFKQFF = 0
20) QCKAKAQANMWQ = 0
21) EIEIQINM = 1
22) KVKVQVV = 0
23) CEIEIQI = 1
24) KFKFEFEF = 1
25) PPFHPPPFHP = 0
26) KKFQKKFQ = 0
27) QCKAKAQANM = 0
28) KIKIKIQI = 1
29) CKIKQII = 1
30) KLKLQLL = 1
31) KWKWQW = 0
32) CKAKAQANMWQ = 0
33) HHHHEIEIEIEI = 0
34) EIEIEIEI = 1
35) CSISIQI = 1
36) EIKIQINM = 1
37) CKYKYQY = 0
38) KAKAKAQA = 0
39) HHHHKAKAKAKAWWWW = 0
40) TKTLTKTL = 0
41) KIKQII = 0
42) KLKQLL = 0
43) KNERIKNERI = 0
44) CHLHLQL = 0
45) QCKFKQFF = 1
46) CKAKAQANM = 0
47) QCKIKQII = 1
48) KIKIQII = 1
49) HHHHKAKAKAKAYYYY = 0
50) CEIEIQINM = 1
51) NMWQKIKQII = 0
52) KYKYQY = 0
53) HGEHGEHGE = 0
54) KYKGAIIGNIK = 0
55) KAKQAANMWQ = 0
